tested on: MDA-MB-453; test: normalised response (% of control), CellTox Green; higher = less cell death (100 = DMSO, 0 = benzethonium chloride kill control); details: incubation time: 72 h
recorded.endpoint: normalised response (%)

>>> measured_value("C[C@@]1(C(=O)Nc2ccc(F)nc2)CCCN1c1nc(Nc2cc(C3CC3)n[nH]2)c2cccn2n1 (10000 nM)")
109
>>> measured_value("FC(F)c1nc2ccccc2n1-c1nc(N2CCOCC2)nc(N2CCOCC2)n1 [ZSTK474] (100 nM)")
85.6
>>> measured_value("Cn1c(=O)c(F)c(Nc2ccc(I)cc2F)c2c(=O)n(C[C@@H](O)CO)cnc21 [TAK-733] (1000 nM)")
109
>>> measured_value("CS(=O)(=O)CCNCc1ccc(-c2ccc3ncnc(Nc4ccc(OCc5cccc(F)c5)c(Cl)c4)c3c2)o1 [Lapatinib] (10 nM)")
103
>>> measured_value("O=c1[nH]cc(F)c(=O)[nH]1 [Fluorouracil] (100 nM)")
106
>>> measured_value("COC(=O)C[C@](O)(CCCC(C)(C)O)C(=O)O[C@@H]1C(OC)=C[C@]23CCCN2CCc2cc4c(cc2[C@H]13)OCO4 [Omacetaxine] (1000 nM)")
115
>>> measured_value("Nc1nccc(-c2c(-c3ccc(F)cc3)ncn2C2CCCCC2)n1 (100 nM)")
98.8
>>> measured_value("CS(=O)(=O)OCCCCOS(C)(=O)=O [Busulfan] (100000 nM)")
97.6
>>> measured_value("COC1=CC(c2cc3ccccc3[nH]2)=N/C1=C\\c1[nH]c(C)cc1C [Obatoclax] (100 nM)")
104
>>> measured_value("Cn1c(=O)c(F)c(Nc2ccc(I)cc2F)c2c(=O)n(C[C@@H](O)CO)cnc21 [TAK-733] (100 nM)")
112
>>> measured_value("Cn1cnc2c(F)c(Nc3ccc(Br)cc3F)c(C(=O)NOCCO)cc21 [MEK-162] (100 nM)")
106
>>> measured_value("COC1=C2C[C@@H](C)C[C@H](OC)[C@H](O)[C@@H](C)/C=C(\\C)[C@H](OC(N)=O)[C@@H](OC)/C=C\\C=C(/C)C(=O)NC(=CC1=O)C2=O [Geldanamycin] (100 nM)")
106
>>> measured_value("Cn1cnc2c(F)c(Nc3ccc(Br)cc3F)c(C(=O)NOCCO)cc21 [MEK-162] (10 nM)")
104
>>> measured_value("C#Cc1cccc(Nc2ncnc3cc(OC)c(OCCCCCCC(=O)NO)cc23)c1 [CUDC-101] (1000 nM)")
65.4
>>> measured_value("COC(=O)C[C@](O)(CCCC(C)(C)O)C(=O)O[C@@H]1C(OC)=C[C@]23CCCN2CCc2cc4c(cc2[C@H]13)OCO4 [Omacetaxine] (10000 nM)")
98.8
>>> measured_value("CCOc1cc2ncc(C#N)c(Nc3ccc(OCc4ccccn4)c(Cl)c3)c2cc1NC(=O)/C=C/CN(C)C [Neratinib] (10 nM)")
108
>>> measured_value("Cn1cnc2c(F)c(Nc3ccc(Br)cc3F)c(C(=O)NOCCO)cc21 [MEK-162] (1000 nM)")
95.4
>>> measured_value("CS(=O)(=O)CCNCc1ccc(-c2ccc3ncnc(Nc4ccc(OCc5cccc(F)c5)c(Cl)c4)c3c2)o1 [Lapatinib] (1000 nM)")
82.5
>>> measured_value("CCS(=O)(=O)c1cccc(-c2cc(C(=O)NC3CCN(C)CC3)c(C)c3[nH]c4ncc(C)cc4c23)c1 [TAK-901] (100 nM)")
107
>>> measured_value("CC(C)C[C@H](NC(=O)[C@H](Cc1ccccc1)NC(=O)c1cnccn1)B(O)O [Bortezomib] (10 nM)")
109
>>> measured_value("CCS(=O)(=O)c1cccc(-c2cc(C(=O)NC3CCN(C)CC3)c(C)c3[nH]c4ncc(C)cc4c23)c1 [TAK-901] (10 nM)")
101
>>> measured_value("COC1=CC(c2cc3ccccc3[nH]2)=N/C1=C\\c1[nH]c(C)cc1C [Obatoclax] (1000 nM)")
105
>>> measured_value("C#Cc1cccc(Nc2ncnc3cc(OC)c(OCCCCCCC(=O)NO)cc23)c1 [CUDC-101] (100 nM)")
101
>>> measured_value("FC(F)c1nc2ccccc2n1-c1nc(N2CCOCC2)nc(N2CCOCC2)n1 [ZSTK474] (1000 nM)")
103
